System: HCC-2998 colon
test description: NCI-60 one-dose screen, 48 h
applied conditions: 10 µM unless noted
Compounds without any hit were thinned out: in the full panel of roughly 83,000, 20% have a hit. The source made the active and inactive calls. Rule for the calls: active = growth percent below 10; inactive = the rest.
Reply using exactly one outcome from True (active), False (inactive)

Some solved entries appear below for comparison.
compound	target entity	class name
N#Cc1c2ncccc2c2nnc3cc(Cl)c(Cl)cc3n12	HCC-2998 colon	False
CCCOC(=O)c1c(C)n(C)c2scc[n+]12	HCC-2998 colon	False
CCOC(=O)CNS(=O)(=O)CC(=O)c1ccccc1	HCC-2998 colon	False
COC(=O)c1ccc2[nH]c(O)c(C(=Nc3ccc(N(C)C(=O)CN4CCN(C)CC4)cc3)c3ccc(N)cc3)c2c1	HCC-2998 colon	False
O=C(N/N=C/c1ccccc1Cl)c1cccc2ccccc12	HCC-2998 colon	False
Cc1nc(NC(=O)NC2CCCCC2)sc1C(=O)NN	HCC-2998 colon	False
O=C(Nc1ccc(-n2cc(-c3ccncc3)c(-c3ccc(Cl)c(O)c3)n2)cc1)c1ccc(Cl)c(C(F)(F)F)c1	HCC-2998 colon	True
CC(=O)O.[In]	HCC-2998 colon	False
C=CCC(CCC(CC=C)C(=O)OCC)C(=O)OCC (stereo unspecified)	HCC-2998 colon	False
COC(=O)[C@H](Cc1cn(C)cn1)NC(=O)[C@@H](NC(=O)Nc1cc(C(F)(F)F)cc(C(F)(F)F)c1)C(C)(C)C	HCC-2998 colon	True

Let us examine a further case.
[Q] For O=C(NCCO)C(F)(F)F , which call appears in the assay record?
[A] False

====

Tested on: HCC-2998 colon
test description: NCI-60 one-dose screen, 48 h (100 = growth as untreated, 0 = no growth, -100 = all killed)
applied conditions: 10 µM unless noted
About 83,000 compounds went through this panel and 20% of them were active in at least one assay; those are over-represented in the sample as a whole.
quantity: growth (%)
Give bare numbers, in %.

compound	target entity	growth [%]
COC(=O)c1ccc2[nH]c(O)c(C(=Nc3ccc(N(C)C(=O)CN4CCN(C)CC4)cc3)c3cccc(OC)c3)c2c1	HCC-2998 colon	20.3
CC[C@H](Nc1ncnc2nc[nH]c12)c1nc2cccc(NCc3ccc(C(=O)NO)o3)c2c(=O)n1-c1ccccc1	HCC-2998 colon	104
COc1ccc(C(=O)CN2C(=O)NC(c3ccccc3)(c3ccccc3)C2=O)cc1	HCC-2998 colon	106
COc1ccc(C2=NN(C(=O)c3cc(-c4ccc(C)cc4)nc4ccccc34)C(c3cc(-c4ccccc4)nn3-c3ccccc3)C2)cc1 (stereo not given)	HCC-2998 colon	102
CCN(CC)CCCNc1c2ccc(Cl)cc2nc2ccc(OC)cc12	HCC-2998 colon	-68.1

Quick request: growth for each listed item, please.
1. CCC(C)(C)c1ccc(OCCCCCCN2CCNCC2)cc1
2. CCOC(=O)C1C(=O)C(=O)N(C(C)C)C1C(=O)OCC (stereo not given)
3. CC1(C)NC(=S)NC1=O
4. CCOC(=O)C(C)C(C)(O)c1ccccc1 (stereo not given)
5. CC1Cc2cc(F)ccc2-n2cccc21 (stereo not given)

[A]
1. -13.5
2. 104
3. 112
4. 84.4
5. 106

Quick request: growth for each listed item, please.
1. N=C(c1ccccc1)N(Cc1ccccc1)Cc1ccccc1
2. Cn1c2c(cc(S(=O)(=O)c3ccccc3)c1=O)CCc1c-2cnn1-c1ccc(Cl)cc1
3. O=C(Nc1ccc(-n2cc(-c3ccncc3)c(-c3ccc(Cl)c(O)c3)n2)cc1)c1ccc(Cl)c(Cl)c1
4. Oc1ccc(Br)cc1/C=N/NC(=S)NC12CC3CC(CC(C3)C1)C2
5. CN(CCC#N)c1ccc(/C=C(\C#N)c2cccc(C(F)(F)F)c2)cc1
6. Cc1nn(-c2ccccc2)c(N)c1N=C1NC(=O)/C(=C/c2ccc(Cl)cc2)S1
7. CCCCCCC(=O)C(C)C
8. CCOC(=O)NC1=NCC(C)(C)S1

[A]
1. 106
2. 74.3
3. 10.1
4. -8.19
5. 78.5
6. 121
7. 105
8. 98.3
